system: Mouse prostate cancer cell line RM1; assay: Inhibitory activity on cancer cells, CellTiter-Glo viability, RM1; type: cell-based; details: 72 hours treatment
Please note: IC50 exactly at 3000 nM is 0 (no). Only values below 3000 nM get 1 (yes).

O=[N+]([O-])c1cc(Cl)c2c(N3CCC(C(F)(F)F)CC3)ccnc2c1O :: 1 (yes)
CCOC(=O)C1CCN(c2ccnc3c(O)c([N+](=O)[O-])cc(Cl)c23)CC1 :: 1 (yes)

Hello, I'm reviewing records and need to know if IC50 of "COC(=O)N1CCN(c2ccnc3c(O)c([N+](=O)[O-])cc(Cl)c23)CC1" is below 3000 nM. Could you check?
1 (yes)

Would you kindly verify if IC50 of "O=[N+]([O-])c1cc(F)c2c(N3CCC(C(F)(F)F)CC3)ccnc2c1O" is strictly less than 3000 nM?
1 (yes)

I'd appreciate it if you could check whether "O=[N+]([O-])c1ccc2c(C(F)(F)F)ccnc2c1O" has IC50 smaller than 3000 nM.
0 (no)

# check: IC50 < 3000 nM for "CS(=O)(=O)N1CCN(c2ccnc3c(O)c([N+](=O)[O-])cc(Cl)c23)CC1"
0 (no)

Quick check: IC50 of "CN(C)C(=O)N1CCN(c2ccnc3c(O)c([N+](=O)[O-])cc(Cl)c23)CC1" under 3000 nM?
0 (no)

----------
test system: Staphylococcus aureus (methicillin-resistant and sensitive clinical isolates; ATCC29213); experiment: MIC by micro broth dilution (CLSI), Staphylococcus aureus; format: cell-based; conditions: Standard strain ATCC29213, read-out: MIC
Note to self: MIC under 30 µg/mL means fulfilled, ties and anything higher get not fulfilled.

O=[N+]([O-])c1ccc2c(C3CCCCC3)ccnc2c1O :: fulfilled
O=[N+]([O-])c1cc(Cl)c2c(N3CCNCC3)ccnc2c1O :: not fulfilled
N#Cc1ccnc2c(O)c([N+](=O)[O-])ccc12 :: not fulfilled
O=[N+]([O-])c1ccc2c(CN3CCOCC3)ccnc2c1O :: not fulfilled
COC(=O)[C@@H]1CCCN1c1ccnc2c(O)c([N+](=O)[O-])ccc12 :: not fulfilled
CN(C)Cc1cc([N+](=O)[O-])c(O)c2nccc(C(F)(F)F)c12 :: not fulfilled
Cc1cnc2c(O)c([N+](=O)[O-])cc(F)c2c1 :: fulfilled

For this compound, is MIC lower than 30 µg/mL? "O=C(O)C(F)(F)F.O=[N+]([O-])c1cc(C(F)F)c2cccnc2c1O"
not fulfilled

----------
Each record here notes measured IC50.
test system: Prostate cancer cell line LNcaP; experiment: Inhibitory activity on cancer cells, CellTiter-Glo viability, LNcaP; assay type: cell-based; conditions: Homo sapiens, 72 hours treatment
Kindly provide the numeric value in nM only, without the unit symbol.

Some entries whose results are on file:
CN(C)c1ccnc2c(O)c([N+](=O)[O-])ccc12 :: 23600
O=[N+]([O-])c1cc(Cl)c2c(N3CCC(F)(F)CC3)ccnc2c1O :: 250

// moving on: another record for IC50
Report its IC50 with Prostate cancer cell line LNcaP as the test system: "CC1(C)CCN(c2ccnc3c(O)c([N+](=O)[O-])cc(Cl)c23)CC1"
480

----------
system: Bladder cancer cell line UM-UC-3; assay: Inhibitory activity on cancer cells, CellTiter-Glo viability, UM-UC-3; assay type: cell-based; settings: Homo sapiens, UMUC3, 72 hours treatment
Note: every record was labeled by where its IC50 sits among 1: < 4 µM; 2: ≥ 4 µM and < 10 µM; 3: ≥ 10 µM

Worked set:
CN(C)CCOc1ccnc2c(O)c([N+](=O)[O-])ccc12 :: 3
O=[N+]([O-])c1ccc2c(N3CC=CC3)ccnc2c1O :: 3
CCOC(=O)C1CCN(c2ccnc3c(O)c([N+](=O)[O-])cc(Cl)c23)CC1 :: 1
O=[N+]([O-])c1ccc(O)c2ncccc12 [Nitroxoline, nitroxoline, reference compound] :: 2

For the record "O=[N+]([O-])c1ccc2c(Cl)c(C3CC3)cnc2c1O" , report the class its IC50 corresponds to.
1

Class? Entry: "Cc1cc2cccnc2c(O)c1[N+](=O)[O-]"
1

Looking at "O=[N+]([O-])c1cc(Cl)c2c(OC3CCCC3)ccnc2c1O" , which class would you pick?
1
